target: NfrB (Escherichia coli)
Sequence (P0AFA5 414-745): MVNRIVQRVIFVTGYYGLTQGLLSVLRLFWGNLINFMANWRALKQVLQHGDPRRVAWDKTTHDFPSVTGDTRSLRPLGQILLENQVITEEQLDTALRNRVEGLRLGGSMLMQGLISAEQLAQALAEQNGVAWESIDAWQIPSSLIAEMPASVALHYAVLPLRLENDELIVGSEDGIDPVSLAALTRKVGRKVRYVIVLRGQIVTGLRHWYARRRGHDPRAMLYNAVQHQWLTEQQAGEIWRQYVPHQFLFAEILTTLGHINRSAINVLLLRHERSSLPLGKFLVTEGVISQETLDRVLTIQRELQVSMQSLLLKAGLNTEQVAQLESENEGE
measuredEndpoint: Kd
Include the unit after the number when you answer.

Ask: Name the value of Kd reported for Nc1nc2c(ncn2[C@@H]2O[C@@H]3CO[P@](=O)(O)O[C@H]4[C@@H](O)[C@H](n5cnc6c(=O)[nH]c(N)nc65)O[C@@H]4CO[P@](=O)(O)O[C@H]3[C@H]2O)c(=O)[nH]1 [c-di-GMP] when tested on NfrB (Escherichia coli).
Reply: 1000 nM
